# ASSAY OVERVIEW: Human HepG2 cell viability assay in 384 well format
# Assay type: toxicity, cell-based
# Set-up: dose 125 nL, time 70.5 hour; concentration not given beside the values
# RUN CONDITIONS: HepG2 cells, read-out: Inhibition
QUANTITY KIND: cytotoxicity at 70.5 h (%)
# value in %; strip the unit string

Ask: Query cytotoxicity at 70.5 h for `Cc1cc(N2CCN(c3nc4ccccc4cc3CO)CC2)nc(C)n1`
Result: -9.44

Ask: For the molecule CCc1nc(CN2CCCC(NCc3nnc(C4CC4)o3)C2)no1 (stereo unspecified) , report cytotoxicity at 70.5 h.
Result: 0.376

Ask: Let me know recorded cytotoxicity at 70.5 h for `Cc1ccc(CN2CC3(CCNCC3)CCC2=O)c(F)c1F` , thanks.
Result: -0.751

Ask: State its cytotoxicity at 70.5 h for this molecule: Cc1nn(C)c(C)c1C1CCCN1C(=O)c1ccc(NC2CC2)nc1 (stereo unspecified)
Result: -17.5

Ask: Give me measured cytotoxicity at 70.5 h, please, for this molecule: `Cc1cccc(C(=O)N2CCn3c(CN4CCN(C)CC4)cnc3C2)n1`
Result: -7.95

Ask: Name the recorded cytotoxicity at 70.5 h of the item `CC(C)(C)c1noc(OCC(=O)NCC(F)(F)F)n1` in your answer.
Result: -0.303

Ask: Given the molecule Cc1n[nH]c2ncc(CNC3CCCN(c4ncccn4)C3)cc12 (stereo unspecified) , write its reported cytotoxicity at 70.5 h.
Result: 0.0496

Ask: Provide only the value of recorded cytotoxicity at 70.5 h for `Cc1cccc(Cn2nc(C3CCNCC3)n(-c3ccccc3)c2=O)c1`
Result: -5.91

Ask: Identify measured cytotoxicity at 70.5 h corresponding to c1ccc2oc(CCCN3CCOC(Cn4cncn4)C3)nc2c1 (stereo unspecified)
Result: 14.6

Ask: Determine its reported cytotoxicity at 70.5 h: `COCCOCC(=O)NC1CCN(c2ccccn2)CC1`
Result: 16.4

Ask: Give me measured cytotoxicity at 70.5 h, please, for this molecule: `COCCOC[C@]1(CNCc2cccc(OC)c2)C[C@@H](O)[C@@H](O)C1`
Result: 0.877

###

# ASSAY OVERVIEW: Human HepG2 cell viability assay in 384 well format
# Assay type: toxicity, cell-based
# Parameters: dose 125 nL, time 70.5 hour; concentration not given beside the values
# RUN CONDITIONS: HepG2 cells, read-out: Inhibition
Kindly supply the reported cytotoxicity at 70.5 h values for the records listed here.
Respond numerically; units are % and should not be typed.

Ask: Quote cytotoxicity at 70.5 h reported for `COCCCN1C(=O)CC[C@H]2CN(Cc3ccc4nonc4c3)CC[C@H]21` please.
Result: -5.42

Ask: Item `CNC(=O)[C@H]1C[C@@H]2CN(C(=O)c3ccoc3)C[C@@H]2N1S(C)(=O)=O` : provide cytotoxicity at 70.5 h
Result: -12

Ask: Please supply the value of reported cytotoxicity at 70.5 h for the item `CN(C(=O)Cc1coc(-c2ccccc2)n1)C1(C#N)CCC1`
Result: 1.14

Ask: Read the entry CC(C)C(NC(=O)NCCNc1ccccn1)c1cccs1 (stereo not drawn) and write its reported cytotoxicity at 70.5 h.
Result: -8.85

Ask: Supply measured cytotoxicity at 70.5 h of `O=C(O)c1cccc(N2C[C@H](NC(=O)C3CCOCC3)[C@@H](C3CC3)C2)n1` in your reply.
Result: -4.78

Ask: Please report the measured cytotoxicity at 70.5 h for O=C1NCC2(CCCN(C(=O)Nc3cccc(-c4cscn4)c3)CC2)O1 (stereo not drawn)
Result: 36

Ask: Output measured cytotoxicity at 70.5 h for this item: CN1CC(NC(=O)CCOc2cccc(Cl)c2)CC1=O (stereo not drawn)
Result: 17.2

Ask: Indicate the recorded cytotoxicity at 70.5 h value for this compound: `CCCOCCOC(=O)c1ccc2c(c1)[nH]c(=O)n2C`
Result: 11.7

Ask: Give the measured cytotoxicity at 70.5 h for `O=C(N1CCOCC1)[C@@]12CCO[C@@H]1CCN(C1CCOCC1)C2`
Result: -4.69

Ask: Tell me measured cytotoxicity at 70.5 h for CN(Cc1ccsc1)C(=O)CN1CCCC1Cn1cccn1 (stereo not drawn) please.
Result: -13.8

Ask: For `Cc1nc(COC[C@@H]2CC[C@H]3[C@H](CCN3c3ncccn3)O2)cs1` , write its cytotoxicity at 70.5 h.
Result: -7.79

Ask: Provide one value: measured cytotoxicity at 70.5 h of COCC1CCCCN1Cc1nc(-c2ccoc2)oc1C (stereo not drawn)
Result: -1.54

Ask: Let me know recorded cytotoxicity at 70.5 h for `Cc1ccc(C(=O)NS(=O)(=O)c2ccccc2C)c(=O)[nH]1` , thanks.
Result: -4.91

Ask: Item `Cc1nc[nH]c1-c1nccn1CCN1CCCOC1=O` : provide cytotoxicity at 70.5 h
Result: -5.03

Ask: For the compound `Cc1ncnc2c1CCN(C(=O)Cc1cccc(F)c1)CC2` , give its reported cytotoxicity at 70.5 h.
Result: 0.979

Ask: Complete the entry with cytotoxicity at 70.5 h for CCOCC(O)CN1CCN(C(=O)Cc2ccccc2C)CC1 (stereo not drawn)
Result: -1.93

Ask: For the compound Cc1nnc2n1CC(CNCc1nc(-c3ccsc3)no1)CC2 (stereo not drawn) , give its reported cytotoxicity at 70.5 h.
Result: -14.6

Ask: State its cytotoxicity at 70.5 h: `Cn1cc(CN2CCCC23CCN(C(=O)c2cccn2C)CC3)cn1`
Result: -14.9

Ask: Identify cytotoxicity at 70.5 h associated with the compound CCN1CC(C(=O)NCc2cccnc2-n2cccn2)CC1=O (stereo not drawn)
Result: -7.76

Ask: Report cytotoxicity at 70.5 h for `Cc1ccc(N2CCCN(C(=O)CCc3nccs3)CC2)nn1`
Result: -8.06

Ask: Give a short answer stating reported cytotoxicity at 70.5 h for Cc1ccccc1C1CCCN(C(=O)c2c[nH]c(=O)c(Cl)c2)C1 (stereo not drawn) .
Result: -12

Ask: Output cytotoxicity at 70.5 h of `CC(C)N(CC(N)=O)Cc1csc(C(C)(C)C)n1`
Result: 3.87

Ask: Quick one: give measured cytotoxicity at 70.5 h for `CC(C)(C)c1coc([C@@H]2COCCN2Cc2ccccc2)n1`
Result: 0.308

Recorded values, source ChEMBL document CHEMBL3507680.
